Please go through the items and note down their abundance fitness.
B1: Glucocorticoid receptor, residues 419 to 494; numbered along this chain, P04150 (parent)
chain: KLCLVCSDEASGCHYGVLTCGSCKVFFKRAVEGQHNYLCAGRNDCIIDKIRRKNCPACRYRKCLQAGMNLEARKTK

Variants of: B1
Test: abundance fitness (aPCA) (normalised: wild type 0, dead -1); higher = more abundant; growth selection in yeast, the domain comes from the species named
Details: Homo sapiens
One number for each entry.

[[record]]
variant_code = "P56V"
reported = -0.064

[[record]]
variant_code = "K62W"
reported = -0.505

[[record]]
variant_code = "T19Q"
reported = -0.559


Items follow; give abundance fitness for each.
1. C39V
2. L2E
3. K74P
4. L70M
5. R73K
6. A66N
7. K28T

Solution:
1. -1
2. 0.049
3. -0.049
4. 0.052
5. 0.004
6. -0.02
7. 0.001

Fill in abundance fitness for each of the 5 variants listed.
1. Q34T
2. K24H
3. C63H
4. S7T
5. A40E

Solution:
1: -0.064; 2: -0.026; 3: -0.813; 4: -0.02; 5: -0.048

For each listed entry, give its abundance fitness.
1. L64K
2. V31W
3. R61H
4. G12T
5. T75M
6. C45Q

Solution:
[-0.01, -0.07, -0.079, -0.069, -0.004, -0.558]

Respectfully, I request abundance fitness for each entry included below.
1. T75F
2. C39E
3. K49P
4. L18G

Solution:
1. 0.064
2. -0.641
3. 0.016
4. -0.191

Dear colleague, could you send me abundance fitness for each of the items below? Thanks.
1. R42K
2. E32F
3. E32N
4. Q34P
5. Q65M
6. C58W
7. C6K
8. P56G

Solution:
0.106
-0.192
-0.059
-0.114
-0.057
-1.08
-1.01
-0.085

Give abundance fitness for each listed item.
1. C63A
2. K74D
3. N43E

Solution:
[-0.28, 0.19, 0.011]

Quick request: abundance fitness for each listed item, please.
1. T19V
2. C58M

Solution:
[-0.011, -0.896]

# batch size: 5; output abundance fitness per entry
1. L2K
2. E32D
3. K53Y
4. R73T
5. N36E

Solution:
0.063
-0.015
-0.026
0.024
0.002
